Test system: WPMY1-TP53BP1-CLTA
TEST_METHOD_NOTES: phenotypically active (imaging signature differs from DMSO and reproducible) at any of 0.3-9 uM (binary (1 = active, 0 = inactive)); higher = active
CONDITION: treatment time: 24 h
MEASURE: phenotypically active
Please respond with just the number, no unit label.

Report measured phenotypically active on WPMY1-TP53BP1-CLTA; entry: "O=C(NCCO)c1cc(C(=O)NCCO)cc(C(=O)NCCO)c1"
0

***
State phenotypically active on WPMY1-TP53BP1-CLTA. Entry: "O=[N+]([O-])c1cc([N+](=O)[O-])c(/C=C/c2ccc(Cl)c(Cl)c2)cc1/C=C/c1ccc(Cl)c(Cl)c1"
0

Print WPMY1-TP53BP1-CLTA phenotypically active for "C=CC(=O)N1CCC[C@@H](n2nc(-c3cccc(C(=O)Nc4ccc(C(C)C)c(C)c4)c3)c3c(N)ncnc32)C1" .
1

Please report the measured phenotypically active for "C[C@@H](c1ncncc1F)[C@](O)(Cn1cncn1)c1ccc(F)cc1F" tested on WPMY1-TP53BP1-CLTA.
0

---

Test system: WPMY1-CANX-COX4
TEST_METHOD_NOTES: lowest phenotypically active concentration; higher = less potent
CONDITION: treatment time: 24 h
Structures can show the parent of a compound that is named as a salt.
Listing of recorded lowest phenotypically active concentration by entry.
Supply the numeric figure in µM, leaving out any unit text.

Take a look at these entries with their results.
Please report the measured lowest phenotypically active concentration for Nc1cc(N)c(N)cc1N [FAK Inhibitor 14]
9

For the compound COc1cc(/C=C/C(=O)N2CCC=CC2=O)cc(OC)c1OC [Piperlongumine] , give its reported lowest phenotypically active concentration.
9

More entries:
Return lowest phenotypically active concentration for the following compound: "O=C(O/N=C1\c2ccccc2-c2nc3ccccc3nc21)c1ccco1"
9

Given the compound "CCOc1cc(N2CCC(O)CC2)ccc1Nc1ncc2c(n1)N(C)c1ccccc1C(=O)N2C" , write its reported lowest phenotypically active concentration.
3

Output lowest phenotypically active concentration of O=C(OC12CC3CC(CC(C3)C1)C2)c1ccc(NCc2cc(O)ccc2O)cc1 [Adaphostin]
1

Kindly indicate its recorded lowest phenotypically active concentration. Item: O=C1NCCN1CCN1CCC(c2cn(-c3ccc(F)cc3)c3ccc(Cl)cc23)CC1 [sertindole]
3

Supply lowest phenotypically active concentration value. Item: "COc1cc2c(NC3CCN(C(C)C)CC3)nc(C3CCCCC3)nc2cc1OCCCN1CCCC1"
1

Consider the compound CN1CCc2cccc3c2[C@H]1Cc1ccc(O)c(O)c1-3 [r(-)-apomorphine] . State its measured lowest phenotypically active concentration.
9

Assign lowest phenotypically active concentration to the following record: "COc1cc2nc(N3CCCN(C)CC3)nc(NC3CCN(Cc4ccccc4)CC3)c2cc1OC"
1

Specify reported lowest phenotypically active concentration for the compound shown: Nc1nccc2c1ncn2[C@@H]1C=C(CO)[C@@H](O)[C@H]1O [3-Deazaneplanocin A hydrochloride]
1

Give recorded lowest phenotypically active concentration. Clc1ccccc1C(c1ccccc1)(c1ccccc1)n1ccnc1 [Clotrimazole]
9

State, in one line, measured lowest phenotypically active concentration of "c1ccc2c(c1)Cc1c(Nc3ccc4c(c3)OCCO4)n[nH]c1-2"
3

State its lowest phenotypically active concentration: "O=S(=O)(c1cccc2cnccc12)N1CCNCC1"
9

Provide lowest phenotypically active concentration value for the following compound: Cc1ccc(/C(=C/CN2CCCC2)c2cccc(/C=C/C(=O)O)n2)cc1 [acrivastine]
1
